# System: 786-O-Hif-Luc cells
# Measurement notes: Luciferase assay (HIF responsive element reporter)
# Measurement parameters: 24 h, read-out: Mean Luciferase EC50 (nM)
Parameter measured: EC50

Q: Return value of EC50 for input CS(=O)(=O)c1ccc(Oc2cc(Cl)cc(C#N)c2)c2c1[C@H](O)C(F)(F)C2 , no commentary.
A: < 50 nM

---
Q: Return value of EC50 for input N#Cc1cc(F)cc(Oc2ccc(S(=O)(=O)C(F)F)c3c2CC[C@H]3O)c1 , no commentary.
A: 50 to 249 nM

Q: Return value of EC50 for input N#Cc1cc(F)cc(Oc2ccc(S(N)(=O)=O)c3c2CC(F)(F)[C@H]3O)c1 , no commentary.
A: 50 to 249 nM

Q: Return value of EC50 for input CS(=O)(=O)c1ccc(Oc2cc(F)cc(C#N)c2)c2c1[C@H](O)[C@H](F)C2 , no commentary.
A: < 50 nM

Q: Return value of EC50 for input [2H]C([2H])([2H])S(=O)(=O)c1ccc(Oc2cc(F)cc(C#N)c2)c2c1[C@]([2H])(O)C(F)(F)C2 , no commentary.
A: < 50 nM

Q: Return value of EC50 for input CCS(=O)(=O)c1ccc(Oc2cc(F)cc(C#N)c2)c2c1[C@H](O)C(F)(F)C2 , no commentary.
A: 50 to 249 nM

Q: Return value of EC50 for input O=S(=O)(c1ccc(Oc2cc(F)cc(Cl)c2)c(Cl)c1CO)C(F)F , no commentary.
A: 250 to 1000 nM

Q: Return value of EC50 for input CNS(=O)(=O)c1ccc(Oc2cc(F)cc(C#N)c2)c2c1[C@H](O)C(F)(F)C2 , no commentary.
A: 50 to 249 nM

Q: Return value of EC50 for input CS(=O)(=O)c1ccc(Oc2cc(F)cc(C#N)c2)c2c1[C@H](N)C(F)(F)C2 , no commentary.
A: 50 to 249 nM

Q: Return value of EC50 for input NS(=O)(=O)c1ccc(Oc2cc(F)cc(F)c2)c2c1[C@H](O)C(F)(F)C2 , no commentary.
A: < 50 nM

Q: Return value of EC50 for input CS(=O)(=O)c1ccc(Oc2cc(F)cc(C#N)c2)c2c1C(O)C(F)(F)C2 (stereo not shown) , no commentary.
A: 50 to 249 nM
